// provenance: PubChem BioAssay (NCI)

- Test system: SNB-75 CNS
- assay info: NCI-60 one-dose screen, 48 h (100 = growth as untreated, 0 = no growth, -100 = all killed)
- run parameters: 10 µM unless noted
Compounds without any hit were thinned out: in the full panel of roughly 83,000, 20% have a hit.
Note to self: growth under 10% means 1.0, ties and anything higher get 0.0.

In [3]: df
Out[3]:
                                    compound  category
 0  CCN1CCN(c2cc(C)nc(NCc3cc(Nc4ccnc5cc(Cl)ccc45)ccc3F)n2)CC1       0.0
 1  CC(C)(C)c1ccc(/C=C/C(=O)Nc2ccc(O)cc2)cc1       0.0
 2  COc1ccc(-c2nc3sccn3c2-c2cc(-c3cc(OC)c(OC)c(OC)c3)on2)cc1       0.0
 3              NC(N)=NN=C(c1ccccc1)c1ccccc1       1.0
 4                CCn1c(C)nc2cc(C(N)=O)ccc21       0.0
 5  C=C1C(=O)O[C@H]2[C@H]1CC/C(COC(=O)C(=O)c1c[nH]c3ccc(OC)cc13)=C\CC[C@@]1(C)O[C@@H]21       1.0
 6  COc1cc(/C=C/C(=O)c2c(C)nc3ccccc3c2C)ccc1OCCCN1CCN(C(=O)c2ccco2)CC1       1.0
 7  N#C/C(=C\c1ccc(Br)cc1)n1nnc2cc(F)c(F)cc21       0.0
 8  CCCCCCCCCCCCCCCCCC1=NCCN1CCOC1=C(Cl)C(=O)c2ccccc2C1=O       0.0
 9  CC(CN1CCCCC1)C(=O)c1ccccc1 (stereo not given)       0.0
10        Cn1cc2c(c1)-c1nc(Nc3ccccc3)ncc1CC2       0.0
11   Cc1cccc(NC(=O)N/C(N)=N/c2nc(C)c(C)s2)c1       1.0
12  CCCCCCCCCCCCCCCCCCOc1ccc(CC(=O)OCC[N+]2(C)CCCC2)cc1       0.0
13  O=c1c2cc(F)ccc2sc2c(Nc3cccnc3)nc3ccccc3c12       0.0
14  O=C1CC(N2C(=O)/C(=C/C(Cl)=C\c3ccc([N+](=O)[O-])cc3)SC2=S)C(=O)N1c1ccc(O)cc1 (stereo not given)       0.0
15  Cc1nc2ccccc2c(/C=C/c2ccc(Cl)cc2)c1C(=O)/C=C/c1ccc(F)cc1       0.0
16  N#Cc1nc(C#N)c(Sc2ccccc2)c(Sc2ccccc2)c1Sc1ccccc1       1.0
17  CS(=O)c1cccc(-c2ccc3nc(N)n(-c4ccc(C(F)(F)F)cc4)c(=O)c3c2)c1 (stereo not given)       0.0
18  COc1cc2ncn3c(=O)c4c5c(sc4nc3c2cc1OC)CCCC5       0.0
19  Fc1c[c-]c(-c2ccccn2)c(F)c1.[CH3-].[Pt+2].c1ccc(P(C[PH+](c2ccccc2)c2ccccc2)c2ccccc2)cc1       1.0
